tested system: IDO1 (Homo sapiens)
Construct: endogenous in cells
Sequence (P14902 whole entry): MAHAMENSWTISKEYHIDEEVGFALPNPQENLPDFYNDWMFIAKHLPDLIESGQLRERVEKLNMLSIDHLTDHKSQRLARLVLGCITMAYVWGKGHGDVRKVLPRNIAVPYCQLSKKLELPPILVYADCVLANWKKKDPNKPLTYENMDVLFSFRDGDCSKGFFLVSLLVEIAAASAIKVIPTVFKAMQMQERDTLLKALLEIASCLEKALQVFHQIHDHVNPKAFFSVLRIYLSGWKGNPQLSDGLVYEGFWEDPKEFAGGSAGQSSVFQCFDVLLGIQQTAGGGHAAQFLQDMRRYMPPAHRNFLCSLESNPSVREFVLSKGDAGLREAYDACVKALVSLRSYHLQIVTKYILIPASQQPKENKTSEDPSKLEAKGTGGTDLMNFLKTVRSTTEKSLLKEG
test description: IDO1 cell-based assay (HeLa cells, IFNgamma-induced, N-formylkynurenine/L-tryptophan by RFMS)
experimental parameters: 10 ng/mL IFNgamma, 24 hours
pIC50: −log10 of the molar value.
experimental endpoint: pIC50

Examples from the recorded data:
CCC(NC(=O)c1ccc(Cl)cc1)[C@H]1[C@@H]2C[C@@H](n3nc4cc(F)cc(F)c4n3)C[C@@H]21 (stereo partly shown) [Compound 213] :: > 6.70
CCC(NC(=O)c1ccc(Cl)cc1)[C@H]1[C@@H]2C[C@@H](Oc3cccnc3Cl)C[C@@H]21 (stereo partly shown) [Compound 60] :: > 6.70
O=C(NCc1ccc(Cl)cc1)C1[C@H]2CC(Oc3cc(C(F)(F)F)nc4ccc(F)cc34)C[C@@H]12 (stereo partly shown) [Compound 17] :: < 5.30
CCC(NC(=O)c1ccc(Cl)cc1)[C@H]1[C@@H]2C[C@@H](n3cc(C(=O)N4CCCC4)nn3)C[C@@H]21 (stereo partly shown) [Compound 98] :: > 6.70
CCC(NC(=O)c1ccc(Cl)cc1)[C@H]1[C@@H]2C[C@@H](n3cncn3)C[C@@H]21 (stereo partly shown) [Compound 81] :: 5.70 to 6.70

Req: State the recorded pIC50 for this entry: CC[C@@H](NC(=O)c1ccc(Cl)cc1)[C@H]1[C@@H]2C[C@@H](NC(=O)c3ncccc3F)C[C@@H]21 [Compound 327]
Resp: > 6.70

Req: Also O=C(NC[C@@H]1[C@H]2C[C@H](n3cnc4cc(F)c(F)cc43)C[C@@H]12)c1ccc(F)cc1 [Compound 314] ?
Resp: > 6.70

====

pIC50 for assorted compounds
tested system: IDO1 (Homo sapiens)
Construct: endogenous in cells
test description: IDO1 cell-based assay (HeLa cells, IFNgamma-induced, N-formylkynurenine/L-tryptophan by RFMS)
experimental parameters: 10 ng/mL IFNgamma, 24 hours
pIC50: −log10 of the molar value.

Examples from the recorded data:
CCC(NC(=O)c1ccc(Cl)cc1)[C@H]1[C@@H]2C[C@@H](NC(=O)c3cn[nH]c3)C[C@@H]21 (stereo partly drawn) :: 5.70 to 6.70
CCC(NC(=O)c1ccc(Cl)cc1)[C@H]1[C@@H]2C[C@@H](Oc3cccc4cccnc34)C[C@@H]21 (stereo partly drawn) :: > 6.70

Req: State the recorded pIC50 for this entry: CCC(NC(=O)c1ccc(Cl)cc1)[C@H]1[C@@H]2C[C@@H](NC(=O)N(C)c3ccccn3)C[C@@H]21 (stereo partly drawn)
Resp: > 6.70

Req: Also CC[C@@H](NC(=O)c1ccc(Cl)cc1)[C@H]1[C@@H]2C[C@@H](n3cc(C(=O)OC)cn3)C[C@@H]21 ?
Resp: > 6.70

Req: Also CC(C)(NC(=O)c1ccc(C#N)cc1)C1[C@H]2CC(n3ncc(=O)c4ccccc43)C[C@@H]12 (stereo partly drawn) ?
Resp: > 6.70

Req: Also CCC(NC(=O)c1ccc(Cl)cc1)[C@H]1[C@@H]2C[C@@H](NC(=O)c3ncccc3Cl)C[C@@H]21 (stereo partly drawn) ?
Resp: > 6.70

Req: Also O=C(Cc1ccc(Cl)cc1)NC1[C@H]2C[C@H](Oc3ccnc4ccc(F)cc34)C[C@@H]12 (stereo partly drawn) ?
Resp: > 6.70

Req: Also CC(NC(=O)c1ccc(C#N)cc1)[C@H]1[C@@H]2C[C@@H](n3ncc(=O)c4ccccc43)C[C@@H]21 (stereo partly drawn) ?
Resp: 5.70 to 6.70

Req: Also CC[C@@H](NC(=O)c1ccc(C#N)cc1)[C@H]1[C@@H]2C[C@@H](c3ccnc4ccc(F)cc34)C[C@@H]21 ?
Resp: > 6.70

Req: Also CCC(NC(=O)c1ccc(Cl)cc1)[C@H]1[C@@H]2C[C@@H](n3cc4c(F)cccc4n3)C[C@@H]21 (stereo partly drawn) ?
Resp: > 6.70

Req: Also O=C(Cc1ccc(Cl)cc1)NC1[C@H]2CC(Oc3ccnc4ccc(F)cc34)C[C@@H]12 (stereo partly drawn) ?
Resp: 5.70 to 6.70

Req: Also CC[C@@H](NC(=O)c1ccc(F)cc1)[C@H]1[C@@H]2C[C@@H](n3cnc4cc(F)c(F)cc43)C[C@@H]21 ?
Resp: > 6.70

Req: Also CC[C@@H](NC(=O)N1CC(F)(F)C1)[C@H]1[C@@H]2C[C@@H](n3cnc4cc(F)c(F)cc43)C[C@@H]21 ?
Resp: 5.70 to 6.70

Req: Also CC[C@@H](NC(=O)N1CCOCC1)[C@H]1[C@@H]2C[C@@H](n3cnc4cc(F)c(F)cc43)C[C@@H]21 ?
Resp: 5.30 to 5.70

Req: Also CCOC(=O)CC(NC(=O)c1ccc(Cl)cc1)[C@H]1[C@@H]2C[C@@H](Oc3cnnc4ccccc34)C[C@@H]21 (stereo partly drawn) ?
Resp: > 6.70

Req: Also CC[C@@H](NC(=O)c1ccc(C#N)cc1)[C@H]1[C@@H]2C[C@@H](n3c(C)nc4ccc(C#N)cc43)C[C@@H]21 ?
Resp: 5.70 to 6.70

Req: Also CCC(NC(=O)c1ccc(Cl)cc1)C1C2CC(Oc3ncnc4cccc(F)c34)CC21 (stereo not drawn) ?
Resp: > 6.70

Req: Also CCC(NC(=O)c1ccc(Cl)cc1)[C@H]1[C@@H]2C[C@@H](Oc3ncnc4cc(Cl)ccc34)C[C@@H]21 (stereo partly drawn) [Compound 21] ?
Resp: > 6.70

Req: Also CCC(NC(=O)c1ccc(Cl)cc1)[C@H]1[C@@H]2C[C@@H](Oc3ccc4c(Cl)ccnc4c3)C[C@@H]21 (stereo partly drawn) ?
Resp: 5.70 to 6.70

Req: Also CCC(NC(=O)c1ccc(Cl)cc1)[C@H]1[C@@H]2C[C@@H](OC3CCOCC3)C[C@@H]21 (stereo partly drawn) ?
Resp: 5.70 to 6.70

Req: Also C[C@@H](NC(=O)c1ccc(Cl)cc1)[C@H]1[C@@H]2C[C@@H](Oc3cc(Cl)ccc3C(=O)O)C[C@@H]21 ?
Resp: 5.30 to 5.70

Req: Also O=C(Cc1ccc(Cl)cc1)NC1C2CN(c3ccnc4ccc(F)cc34)CC21 (stereo not drawn) ?
Resp: < 5.30

Req: Also CCC(NC(=O)c1ccc(Cl)cc1)[C@H]1[C@@H]2C[C@@H](Nc3ncc(F)cc3[N+](=O)[O-])C[C@@H]21 (stereo partly drawn) ?
Resp: > 6.70

Req: Also CCC(NC(=O)c1ccc(Cl)cc1)[C@H]1[C@@H]2C[C@@H](NC(C(=O)O)c3ccccc3)C[C@@H]21 (stereo partly drawn) ?
Resp: < 5.30

Req: Also CC[C@@H](NC(=O)c1ccc(C#N)cc1)[C@H]1[C@@H]2C[C@@H](n3c(C)nc4ccc(Cl)cc43)C[C@@H]21 ?
Resp: > 6.70

Req: Also CCC(NC(=O)c1ccc(Cl)cc1)[C@H]1[C@@H]2C[C@@H](Oc3cc(C)nc4ccc(F)cc34)C[C@@H]21 (stereo partly drawn) ?
Resp: > 6.70

Req: Also CC(NC(=O)c1ccc(C#N)cc1)C1[C@H]2CC(Oc3ncnc4ccc(F)cc34)C[C@@H]12 (stereo partly drawn) ?
Resp: > 6.70

Value source: patent US11173145B2
